Experimental target: CGRP antigen
Assay explanation: cell-based or functional assay
hey, just use label 1 if measured IC50 is less than 0.09 µg/mL, otherwise label 0

>  <Binder>
hu230 (antibody, V domains shown, 3C1 HC-3/3C1 LC-1) VH: QVQLVQSGSELKKPGASVKVSCKASGYTFTGYTMNWVRQAPGQGLEWMGLINPYIGNTHYNQKFKDRFVFSVDRSSSTAYLQISSLKAEDTAVYYCARELDSGFDYWGQGTLVTVSS VL: DVVMTQSPLSLPVTLGQPASISCRSSQNIVHSNGDTYLEWYQQRPGQSPRLLIYKVSNRFSGVPDRFSGSGSGTDFTLKISRVEAEDVGVYYCYQGSHVPWTFGQGTKLEIK

>  <Assigned category>
label 1

$$$$
>  <Binder>
hu45 (antibody, V domains shown, 1F5 HC-2/1F5 LC1-2) VH: QVQLVQSGAEVKKPGASVKVSCKASGYTFTDFNMHWVRQAPGQRLEWMGYIYPYNGDVVYNQNFTNRVTLTVDTSSSTAYMELSSLRSEDTAVYYCAREGLGGYWGQGTLVTVSS VL: EIVLTQSPATLSLSPGERATLSCKASQNIDFDGYAYMNWYQHKPGQAPRVLIYSVFNLESGIPARFSGSGSGTDFTLTISSLEPEDFAVYYCQQSHEVPYTFGQGTKLEIK

>  <Assigned category>
label 0

$$$$
>  <Binder>
hu131 (antibody, V domains shown, 2B8 HC1-3/1A2 LC2-1) VH: QVQLVQSGAEVKKPGASVKVSCKASGYTFTDYNMHWVRQAPGQGLEWMGNIYPYNAGTVYNQKFNNRVTLTVDTSSSTAYMELSRLRSDDTAVYYCAREGLGGYWGQGTLVTVSS VL: DIVLTQSPASLAVSPGQRATITCKASQNIDYDGYAYLNWYQQKPGQPPKVLIYSVFNLESGVPARFSGSGSGTDFTLTINPVEANDTANYYCQQSNEFPYTFGQGTKLEIK

>  <Assigned category>
label 1

$$$$

We next turn to a different binder, shown below.
Query: In plain terms, does hu145 (antibody, V domains shown, 3E5 HC-1/1A2 LC2-2) VH: QVQLVQSGAEVKKPGASVKVSCKTSGYTFTDYNMHWVRQAPGQRLEWMGYISPYNGGTAYNQKFKFRVTLTVDTSSSTAYMELSSLRSEDTAVYYCAREGLGGYWGQGTLVTVSS VL: DIVLTQSPASLAVSPGQRATITCKASQNIDYDGYAYLNWYQQKPGQPPKVLIYSVFNLESGVPARFSGSGSGTDFTLTINPVEADDTANYYCQQSNEFPYTFGQGTKLEIK come in under 0.09 µg/mL for IC50?
Result: label 0

These measurements were taken from patent US20260125454A1.
